The following are reported MIC results, target or system Mycobacterium kansasii.
One number for each entry, in µg/mL.

I would be grateful if you could provide MIC for each of the following entries.
1. CC[C@H]1OC(=O)[C@H](C)[C@@H](O[C@H]2C[C@@](C)(OC)[C@@H](O)[C@H](C)O2)[C@H](C)[C@@H](O[C@@H]2O[C@H](C)C[C@H](N(C)C)[C@H]2O)[C@](C)(OC)C[C@@H](C)C(=O)[C@H](C)[C@@H](O)[C@]1(C)O [Clarithromycin]
2. CO[C@H]1/C=C/O[C@@]2(C)Oc3c(C)c(O)c4c(O)c(c(/C=N/N5CCN(C)CC5)c(O)c4c3C2=O)NC(=O)/C(C)=C\C=C\[C@H](C)[C@H](O)[C@@H](C)[C@@H](O)[C@@H](C)[C@H](OC(C)=O)[C@@H]1C [Rifampicin]
3. NCC[C@H](O)C(=O)N[C@@H]1C[C@H](N)[C@@H](O[C@H]2O[C@H](CN)[C@@H](O)[C@H](O)[C@H]2O)[C@H](O)[C@H]1O[C@H]1O[C@H](CO)[C@@H](O)[C@H](N)[C@H]1O [Amikacin]
4. C=C(NC(=O)C(=C)NC(=O)c1csc(C2=N[C@@H]3c4csc(n4)[C@H]4NC(=O)c5csc(n5)[C@H]([C@](C)(O)[C@@H](C)O)NC(=O)[C@H]5CSC(=N5)/C(=C/C)NC(=O)[C@H]([C@@H](C)O)NC(=O)c5csc(n5)[C@]3(CC2)NC(=O)[C@H](C)NC(=O)C(=C)NC(=O)[C@H](C)NC(=O)[C@H]([C@@H](C)CC)N[C@@H]2C=Cc3c([C@H](C)O)cc(nc3[C@H]2O)C(=O)O[C@@H]4C)n1)C(N)=O [Thiostrepton]
5. COc1c(N2C[C@@H]3CCCN[C@@H]3C2)c(F)cc2c(=O)c(C(=O)O)cn(C3CC3)c12 [Moxifloxacin]

Ans:
1: 0.5; 2: 0.13; 3: 4; 4: 1; 5: 2

====

Kindly supply the reported IC Emax (intracellular efficacy) values for the records listed here.
# Test system: M. abscessus in THP-1 macrophages
# experimental-protocol: Intracellular efficacy in THP-1 macrophages
# Format: cell-based, Mycobacterium abscessus
# cond: M.abscessess in THP-1 macrophages
Answers are plain numbers, in log10 cfu/ml.

CO[C@H]1/C=C/O[C@@]2(C)Oc3c(C)c(O)c4c(O)c(c(/C=N/N5CCN(C)CC5)c(O)c4c3C2=O)NC(=O)/C(C)=C\C=C\[C@H](C)[C@H](O)[C@@H](C)[C@@H](O)[C@@H](C)[C@H](OC(C)=O)[C@@H]1C [Rifampicin]    0.00
COc1c(N2C[C@@H]3CCCN[C@@H]3C2)c(F)cc2c(=O)c(C(=O)O)cn(C3CC3)c12 [Moxifloxacin]    1.00
CC[C@H]1OC(=O)[C@H](C)[C@@H](O[C@H]2C[C@@](C)(OC)[C@@H](O)[C@H](C)O2)[C@H](C)[C@@H](O[C@@H]2O[C@H](C)C[C@H](N(C)C)[C@H]2O)[C@](C)(OC)C[C@@H](C)C(=O)[C@H](C)[C@@H](O)[C@]1(C)O [Clarithromycin]    0.70

Then this compound:
Q: Report IC Emax (intracellular efficacy) on M. abscessus in THP-1 macrophages for this entry: C=C(NC(=O)C(=C)NC(=O)c1csc(C2=N[C@@H]3c4csc(n4)[C@H]4NC(=O)c5csc(n5)[C@H]([C@](C)(O)[C@@H](C)O)NC(=O)[C@H]5CSC(=N5)/C(=C/C)NC(=O)[C@H]([C@@H](C)O)NC(=O)c5csc(n5)[C@]3(CC2)NC(=O)[C@H](C)NC(=O)C(=C)NC(=O)[C@H](C)NC(=O)[C@H]([C@@H](C)CC)N[C@@H]2C=Cc3c([C@H](C)O)cc(nc3[C@H]2O)C(=O)O[C@@H]4C)n1)C(N)=O [Thiostrepton]
Ans: 0.00

====

Kindly supply the reported MIC values for the records listed here.
# Tested on: Mycobacterium abscessus
Give bare numbers, in µg/mL.

COc1c(N2C[C@@H]3CCCN[C@@H]3C2)c(F)cc2c(=O)c(C(=O)O)cn(C3CC3)c12    2

Then this molecule:
Q: Report MIC, nothing else, for this molecule: C=C(NC(=O)C(=C)NC(=O)c1csc(C2=N[C@@H]3c4csc(n4)[C@H]4NC(=O)c5csc(n5)[C@H]([C@](C)(O)[C@@H](C)O)NC(=O)[C@H]5CSC(=N5)/C(=C/C)NC(=O)[C@H]([C@@H](C)O)NC(=O)c5csc(n5)[C@]3(CC2)NC(=O)[C@H](C)NC(=O)C(=C)NC(=O)[C@H](C)NC(=O)[C@H]([C@@H](C)CC)N[C@@H]2C=Cc3c([C@H](C)O)cc(nc3[C@H]2O)C(=O)O[C@@H]4C)n1)C(N)=O
Ans: 0.5

====

The following are reported MIC results, target or system Mycobacterium abscessus.
One number for each entry, in µg/mL.

Below, each entry is followed by its recorded MIC result.
NCC[C@H](O)C(=O)N[C@@H]1C[C@H](N)[C@@H](O[C@H]2O[C@H](CN)[C@@H](O)[C@H](O)[C@H]2O)[C@H](O)[C@H]1O[C@H]1O[C@H](CO)[C@@H](O)[C@H](N)[C@H]1O    4
CC[C@H]1OC(=O)[C@H](C)[C@@H](O[C@H]2C[C@@](C)(OC)[C@@H](O)[C@H](C)O2)[C@H](C)[C@@H](O[C@@H]2O[C@H](C)C[C@H](N(C)C)[C@H]2O)[C@](C)(OC)C[C@@H](C)C(=O)[C@H](C)[C@@H](O)[C@]1(C)O    2

Q: Report MIC, nothing else, for this molecule: CO[C@H]1/C=C/O[C@@]2(C)Oc3c(C)c(O)c4c(O)c(c(/C=N/N5CCN(C)CC5)c(O)c4c3C2=O)NC(=O)/C(C)=C\C=C\[C@H](C)[C@H](O)[C@@H](C)[C@@H](O)[C@@H](C)[C@H](OC(C)=O)[C@@H]1C
Ans: 16

====

Kindly supply the reported MBC values for the records listed here.
# Tested on: Mycobacterium intracellulare
# experimental-protocol: Minimum Bactericidal Concentration (MBC)
# Assay type: cell-based
# cond: M.intracellulare
Numbers only, in µg/mL.

Below, each entry is followed by its recorded MBC result.
COc1c(N2C[C@@H]3CCCN[C@@H]3C2)c(F)cc2c(=O)c(C(=O)O)cn(C3CC3)c12 [Moxifloxacin]    1
CO[C@H]1/C=C/O[C@@]2(C)Oc3c(C)c(O)c4c(O)c(c(/C=N/N5CCN(C)CC5)c(O)c4c3C2=O)NC(=O)/C(C)=C\C=C\[C@H](C)[C@H](O)[C@@H](C)[C@@H](O)[C@@H](C)[C@H](OC(C)=O)[C@@H]1C [Rifampicin]    0.25
NCC[C@H](O)C(=O)N[C@@H]1C[C@H](N)[C@@H](O[C@H]2O[C@H](CN)[C@@H](O)[C@H](O)[C@H]2O)[C@H](O)[C@H]1O[C@H]1O[C@H](CO)[C@@H](O)[C@H](N)[C@H]1O [Amikacin]    2
C=C(NC(=O)C(=C)NC(=O)c1csc(C2=N[C@@H]3c4csc(n4)[C@H]4NC(=O)c5csc(n5)[C@H]([C@](C)(O)[C@@H](C)O)NC(=O)[C@H]5CSC(=N5)/C(=C/C)NC(=O)[C@H]([C@@H](C)O)NC(=O)c5csc(n5)[C@]3(CC2)NC(=O)[C@H](C)NC(=O)C(=C)NC(=O)[C@H](C)NC(=O)[C@H]([C@@H](C)CC)N[C@@H]2C=Cc3c([C@H](C)O)cc(nc3[C@H]2O)C(=O)O[C@@H]4C)n1)C(N)=O [Thiostrepton]    1

Then this compound:
Q: Report MBC, nothing else, for this compound: CC[C@H]1OC(=O)[C@H](C)[C@@H](O[C@H]2C[C@@](C)(OC)[C@@H](O)[C@H](C)O2)[C@H](C)[C@@H](O[C@@H]2O[C@H](C)C[C@H](N(C)C)[C@H]2O)[C@](C)(OC)C[C@@H](C)C(=O)[C@H](C)[C@@H](O)[C@]1(C)O [Clarithromycin]
Ans: 0.5
